Where do these numbers come from? They come from patent US9527885B2.

Listing of entries alongside the reported EC50.
system: HCV genotype 1b (Con1) replicon in HUH-7 cells; assay: HCV replicon luciferase reporter assay, genotype 1b; format: cell-based; details: Hepatitis C virus, 72 h, HCV genotype 1b replicon luciferase, 3 days incubation, class symbols, read-out: LE_1b (EC50, range)

>>> assay_value("CC[C@@H]1C[C@H](C)CC/C=C\\[C@@H]2C[C@@]2(C(=O)NS(=O)(=O)C2CC2)NC(=O)[C@@H]2C[C@@H](Oc3ncc(OC)c4ccc(F)cc34)CN2C(=O)[C@H]1NC(=O)OC(C)(C)C")
"< 5.46 nM"

Note: attention shifts to another entry.
Given item CC[C@@H]1C[C@H](C)CC/C=C\[C@@H]2C[C@@]2(C(=O)NS(=O)(=O)C2CC2)NC(=O)[C@@H]2C[C@@H](Oc3ncc(OC)c4ccccc34)CN2C(=O)[C@H]1NC(=O)OC(C)(C)C(F)(F)F , the value recorded as its EC50 is < 5.46 nM
